Recorded values, source patent US20250034269A1.

target: human LTBR on cells (human, UniProt P36941 31-435); test: cell-based or functional assay
Doc: threshold 10000 RLU (exclusive). Items with NFκB luc, 0.91 ng/ml, w/o x linker beneath it return 1.0; others return 0.0.

Task: Check if NFκB luc, 0.91 ng/ml, w/o x linker falls below 10000 RLU for P1AE9457 (antibody, human IgG1, kappa, L234A L235A, V domains shown, human IgG1 PG LALA; from transgenic rabbit immunization; also called LTBR (9457)) VH: EVQLLESGGGLVQPGGSLRLSCAASGFTFSNYAMTWVRQAPGKGLEWVSEISGSGGSTYYADSVKGRFTISRDNSKNTLYLQMNSLRAEDTAVYYCAKDDDGAYGDTMDVWGQGTTVTVSS VL: DIQMTQSPSSLSASIGDRVTITCRASQDISNYLNWYQQKPGKAPKLLIYAASALQSGVPSRFSGSGSGTDFTLTISSLQPEDFATYYCQHYKSYPYTFGQGTKVEIRR .
Result: 0.0

Task: Can you check P1AE9452 (antibody, human IgG1, kappa, L234A L235A, V domains shown, human IgG1 PG LALA; from transgenic rabbit immunization; also called LTBR (9452)) VH: EVQLLESGGGLVQPGGSLRLSCAAAGFTFSSYPMTWVRQAPGKGLEWVSLISPSGATTYYADSVKGRFTISRDTSKNTLYLQMNSLRAEDTAVYYCAKNHYPDDVIIKNYYFYGVDVWGQGTTVTVSS VL: DIQMTQSPSSLSASVGDRVTITCRASQDISNYLNWYQQKPGKAPKSLIYAASSLQSGVPSRFSGSGSGTDFTLTISSLQPEDFANYYCQQTHTIPYSFGQGTNLEIKR next?
Result: 1.0

Task: Could you do the same for P1AE9450 (antibody, human IgG1, kappa, L234A L235A, V domains shown, human IgG1 PG LALA; from transgenic rabbit immunization; also called LTBR (9450)) VH: EVQLLESGGGLVQPGGSLRLSCAASGFTVSSYVMKWFRQAPGKGLEWVSSISGSGGRPFYADSVKGRFTISRDNSKNALYLQMNSLRAEDTAVYYCANDMDVWGQGTTVTVSS VL: DIQMTQSPSSLSASVGDRVTITCRASQDISSFLKWYQQKPGKAPTLLIYAASALQSGVPSRFSGSGSGTDFTLTISSLQPEDFATYYCQQYNTYPLTFGGGTKVDIKR , please?
Result: 0.0

Task: Repeat for the following binder: P1AE1873 (CBE11) (antibody, human IgG1, kappa, L234A L235A, V domains shown) VH: EVQLVESGGGLVKPGGSLRLSCAASGFTFSDYYMYWFRQAPGKGLEWVATISDGGSYTYYPDSVKGRFTISRDNAKNSLYLQMSSLRAEDTAVYYCAREENGNFYYFDYWGQGTTVTVSS VL: DIQMTQSPSSLSASVGDRVTITCKAGQDIKSYLSWYQQKPGKAPKLLIYYATRLADGVPSRFSGSGSGTDYTLTISSLQPEDFATYYCLQHGESPWTFGGGTKLEIKR
Result: 0.0

Task: And for P1AF0079 (antibody, human IgG1, kappa, L234A L235A, V domains shown, human IgG1 PG LALA; from transgenic rabbit immunization; also called LTBR (0079)) VH: EVQLLESGGALVQPGGSLRLSCAASGFTFSSYAMSWVRQAPGKGLEWVSVITGSSSSIDYADSVKGRFTISRDNSKNTLYLQMNSLRAEDTAVYYCAKGGSGVWSISTDFDYWGQGTLVTVSS VL: DIQMTQSPSFLSASVGDRVTITCQASQDISNYLNWYQQKPGKAPKHLIYAASSLHSGVPSRFSGSGSGAYFTLTITSLQPEDFATYYCQQSHSTPPTFGPGTKVDIKR ?
Result: 0.0

Task: Query P1AF0080 (antibody, human IgG1, kappa, L234A L235A, V domains shown, human IgG1 PG LALA; from transgenic rabbit immunization; also called LTBR (0080)) VH: EVQLLESGGGLVQPGGSLRLSCAASGFTFSYYAMTWVRQAPGKGLEWIGVINSGGGTYYTDSVKGRFTMSRDNSKNTLYLQVNSLRAEDTAVYYCAKASTADVWGQGTTVTVSS VL: DIQMTQSPSSLSASVGDRVTITCQASQGISNYLSWYQQKPGKAPKRLIFAASSLESGVPSRFSGSGSGTDFTLTISSLQPEDFATYYCQQYNSYSLTFGGGTKLEIKR next
Result: 0.0
